# TEST_TARGET: human HDAC8 (Homo sapiens (Human), UniProt Q9BY41)
# Sequence (Q9BY41 whole entry): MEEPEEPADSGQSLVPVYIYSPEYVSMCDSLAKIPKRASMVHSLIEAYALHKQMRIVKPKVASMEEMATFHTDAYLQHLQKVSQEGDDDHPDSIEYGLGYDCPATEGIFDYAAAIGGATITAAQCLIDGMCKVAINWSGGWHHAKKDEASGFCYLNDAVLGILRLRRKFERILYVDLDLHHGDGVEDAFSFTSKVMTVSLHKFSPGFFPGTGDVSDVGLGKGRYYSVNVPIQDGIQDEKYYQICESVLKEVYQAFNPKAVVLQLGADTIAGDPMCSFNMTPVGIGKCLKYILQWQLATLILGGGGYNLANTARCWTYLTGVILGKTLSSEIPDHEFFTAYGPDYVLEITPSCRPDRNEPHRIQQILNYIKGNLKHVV
# PROCEDURE_TEXT: HDAC8 inhibition assay (modified FLUOR DE LYS, 384-well)
# Format: biochemical
# REPORTED_CONDITIONS: […] enzyme, 200 μM substrate BML-KI178, 3 h pre-incubation; read-out: HDAC8 IC50
pIC50: −log10 of the molar value.
VALUE_TYPE: pIC50

# COMPOUND, READOUT_QUALIFIER, READING
measured = [
    ("COc1nc2ccccc2cc1-c1c[nH]c([C@@H](N)CCCCCC(=O)c2ncco2)n1 [Example 15]", "=", 6.14),
    ("Cn1cc2cc(-n3ccc([C@@H](N)CCCCCC(=O)c4ncco4)n3)ccc2n1 [Example 128]", "=", 5.37),
    ("COc1nc2ccccc2cc1-c1cnc([C@H](CCCCCC(=O)c2ncco2)NC(=O)c2cncs2)[nH]1 [Example 42]", "=", 7.57),
    ("COc1cc2nc(C)ccc2cc1-c1cnc([C@H](CCCCCC(=O)c2ncco2)NC(=O)Cn2ccc(C)n2)[nH]1 [Example 166]", "=", 7.12),
    ("COc1cc2nc(C)ccc2cc1-c1cnc([C@H](CCCCCC(=O)c2ncco2)NC(=O)C2(C)CCCCO2)[nH]1 (stereo partly drawn) [Example 170]", "=", 6.66),
    ("COc1nc2ccccc2cc1-c1cnc([C@H](CCCCCC(=O)c2ncco2)NC(=O)c2ccncn2)[nH]1 [Example 149]", "=", 6.85),
    ("CN1CCC2(CC1)C[C@@H]2C(=O)N[C@@H](CCCCCC(=O)c1ncco1)c1oc(-c2ccc(F)cc2)nc1C#N [Example 191]", "=", 5.64),
    ("COc1nc2ccccc2cc1-c1cnc([C@H](CCCCCC(=O)c2ncco2)NC(=O)CN2CCCCC2)[nH]1 [Example 53]", "=", 7.04),
    ("CCN[C@@H](CCCCCC(=O)c1ncco1)c1ncc(-c2cc3ccc(=O)n(C)c3cc2OC)[nH]1 [Example 77]", "<", 6.05),
    ("CCN1CCC2(CC1)C[C@@H]2C(=O)N[C@@](C)(CCCCCC(=O)c1ccon1)c1ncc(-c2ccccc2F)[nH]1 [Example 183]", "=", 6.26),
    ("Cc1ccc2cc(-c3cnc(C(CCCCCC(=O)c4ncco4)NC(=O)[C@H]4CC45CCN(C)CC5)o3)ccc2n1 (stereo partly drawn) [Example 111]", "=", 6.28),
    ("CN1CCC2(CC1)C[C@@H]2C(=O)N[C@@H](CCCCCC(=O)c1ccon1)c1nc(-c2ccccc2F)c[nH]1 [Example 39]", "=", 8.70),
    ("COc1nc2ccccc2cc1-c1c[nH]c([C@H](CCCCCC(=O)c2ccon2)NC(=O)C2CCN(C)CC2)n1 [Example 40]", "=", 8.48),
    ("COc1cc2nc(C)ccc2cc1-c1cnc([C@H](CCCCCC(=O)c2cc(C)on2)NC(=O)C2CN(C)C2)[nH]1 [Example 57]", "=", 6.82),
    ("COc1nc2ccccc2cc1-c1cnc([C@H](CCCCCC(=O)c2ncco2)NC(=O)c2cc3n(n2)CCCC3)[nH]1 [Example 154]", "=", 6.96),
    ("COc1cc(O[C@H]2C[C@H](OC)C2)cc(-c2cnc([C@@H](N)CCCCCC(=O)c3ncco3)[nH]2)c1F [Example 144]", "=", 6.68),
    ("COc1cc2nc(C)ccc2cc1-c1cnc([C@H](CCCCCC(=O)c2ncco2)NCc2ccccc2)[nH]1 [Example 82]", "=", 5.74),
    ("CN(C)C1(C(=O)N[C@@H](CCCCCC(=O)c2ccon2)c2ncc(-c3ccccc3F)[nH]2)CCC1 [Example 63]", "=", 8.42),
    ("CN1CCC1C(=O)N[C@@H](CCCCCC(=O)c1ccon1)c1ncc(-c2ccccc2F)[nH]1 (stereo partly drawn) [Example 60]", "=", 8.77),
    ("CN1CCC2(CC1)C[C@@H]2C(=O)N[C@@H](CCCCCC(=O)c1ccon1)c1nc(Cl)c(-c2ccc(F)cc2)[nH]1 [Example 195]", "=", 8.02),
    ("CN(C)C1(C(=O)N[C@@H](CCCCCC(=O)c2ccon2)c2ncc(-c3ccccc3F)[nH]2)CCCC1 [Example 64]", "=", 8.46),
    ("COc1cc2nc(C)ccc2cc1-c1cnc([C@H](CCCCCC(=O)c2ncco2)NC(=O)c2cc3n(n2)CCS(=O)(=O)C3)[nH]1 [Example 165]", "=", 7.39),
    ("N[C@@H](CCCCCC(=O)c1ncco1)c1ncc(-c2cc(C(F)(F)F)ccc2F)[nH]1 [Example 137]", "<", 6.05),
    ("COc1cc2c(ccc(=O)n2C)cc1-c1cnc([C@H](CCCCCC(=O)c2ncco2)NC(=O)CN(C)C)[nH]1 [Example 92]", "=", 7.24),
]
